study target: androgen receptor (AR) splicing variant AR-v7 (Homo sapiens)
Construct: The degradation activity of compounds on AR-v7 in 22RV1 cells; host or cells: 22RV1 cells
Sequence (P10275 1-644 isoform P10275-3): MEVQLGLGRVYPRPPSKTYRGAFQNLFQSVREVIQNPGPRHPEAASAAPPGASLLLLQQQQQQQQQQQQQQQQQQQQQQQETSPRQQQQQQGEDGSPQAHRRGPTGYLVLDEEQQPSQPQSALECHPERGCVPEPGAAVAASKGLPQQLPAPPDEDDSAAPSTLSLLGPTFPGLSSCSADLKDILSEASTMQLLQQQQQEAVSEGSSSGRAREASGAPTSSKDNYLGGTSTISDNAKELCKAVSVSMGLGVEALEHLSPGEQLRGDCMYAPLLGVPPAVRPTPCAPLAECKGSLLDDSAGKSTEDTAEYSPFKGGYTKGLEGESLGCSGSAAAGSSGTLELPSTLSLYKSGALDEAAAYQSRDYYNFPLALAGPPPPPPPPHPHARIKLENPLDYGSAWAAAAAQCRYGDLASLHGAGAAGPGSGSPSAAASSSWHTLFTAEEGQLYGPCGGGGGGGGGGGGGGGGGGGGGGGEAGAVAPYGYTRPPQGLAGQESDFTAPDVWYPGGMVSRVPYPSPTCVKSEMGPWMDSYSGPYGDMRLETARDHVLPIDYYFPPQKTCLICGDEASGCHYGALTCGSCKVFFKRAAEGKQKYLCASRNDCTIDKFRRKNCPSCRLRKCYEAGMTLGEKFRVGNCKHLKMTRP
method description: Degradation activity on androgen receptor splicing variant AR-v7 in 22RV1 cells (ELISA)
Assay type: cell-based
condition info: AR-v7 degradation in 22RV1 cells, 48 h, class symbols
recorded metric: DC50

# input compound: CC(C)(O)c1ncc(Oc2ccc(C(C)(C)c3ccc(O[C@H]4C[C@H](Nc5ccc6c(c5)C(=O)N(C5CCC(=O)NC5=O)C6=O)C4)cc3)cc2)cn1 (stereo partly drawn) ; wanted: its DC50
< 0.01 µM

Bench note: what DC50 did Cc1nnc(Oc2ccc(C(C)(C)c3ccc(O[C@H]4C[C@H](Nc5ccc6c(c5)C(=O)N(C5CCC(=O)NC5=O)C6=O)C4)cc3)cc2)o1 (stereo partly drawn) show?
< 0.01 µM

If you can, please state the reported DC50 value of CCC(CC)(c1ccc(Oc2ccc(C(C)=O)nn2)cc1)c1ccc(O[C@H]2C[C@H](Nc3ccc4c(c3)C(=O)N(C3CCC(=O)NC3=O)C4=O)C2)cc1 (stereo partly drawn) .
< 0.01 µM

---

method description: Pharmacokinetics in mice (plasma exposure after oral administration)
Assay type: in vivo
condition info: mouse, ICR mice, oral (i.g.) 3 mg/kg, read-out: After oral administration of 3 mg/kg, mouse plasma exposure AUCinf
Entries annotated with measured AUC(0-inf)

1) CC(C)(c1ccc(Oc2ccc(-n3nccn3)nn2)cc1)c1ccc(O[C@H]2C[C@H](Nc3ccc4c(c3)C(=O)N(C3CCC(=O)NC3=O)C4=O)C2)cc1 (some centres unmarked) | 5000 to 30000 ng·h/mL
2) C=CC(c1ccc(Oc2ncc(-n3nccn3)cn2)cc1)c1ccc(O[C@H]2C[C@H](Nc3ccc4c(c3)C(=O)N(C3CCC(=O)NC3=O)C4=O)C2)cc1 (some centres unmarked) | 5000 to 30000 ng·h/mL

Any idea what AUC(0-inf) was measured for CCC(CC)(c1ccc(Oc2ccc(C(C)O)nn2)cc1)c1ccc(O[C@H]2C[C@H](Nc3ccc4c(c3)C(=O)N(C3CCC(=O)NC3=O)C4=O)C2)cc1 (some centres unmarked) ?
1000 to 5000 ng·h/mL

I am curious: what AUC(0-inf) value has been reported for Cc1nnc(-c2cnc(Oc3ccc(C(C)(C)c4ccc(O[C@H]5C[C@H](Nc6ccc7c(c6)C(=O)N(C6CCC(=O)NC6=O)C7=O)C5)cc4)cc3)nc2)o1 (some centres unmarked) ?
5000 to 30000 ng·h/mL

Name the recorded AUC(0-inf) for C=CC(c1ccc(Oc2ccc(-n3nccn3)nn2)cc1)c1ccc(O[C@H]2C[C@H](Nc3ccc4c(c3)C(=O)N(C3CCC(=O)NC3=O)C4=O)C2)cc1 (some centres unmarked) .
5000 to 30000 ng·h/mL

# AUC(0-inf) lookup, item CC1(O)CN(c2nccc(COc3ccc(C(C)(C)c4ccc(O[C@H]5C[C@@H](Nc6ccc7c(c6)C(=O)N(C6CCC(=O)NC6=O)C7=O)C5)cc4)cc3)n2)C1 (some centres unmarked)
1000 to 5000 ng·h/mL

Item CC(C)(c1ccc(OCc2ccnc(N3CC4(COC4)C3)n2)cc1)c1ccc(O[C@H]2C[C@@H](Nc3ccc4c(c3)C(=O)N(C3CCC(=O)NC3=O)C4=O)C2)cc1 (some centres unmarked) has what recorded AUC(0-inf)?
1000 to 5000 ng·h/mL

Could you tell me which AUC(0-inf) is on file for CC(C)(c1ccc(Oc2cnc(-n3ccnn3)cn2)cc1)c1ccc(O[C@H]2C[C@H](Nc3ccc4c(c3)C(=O)N(C3CCC(=O)NC3=O)C4=O)C2)cc1 (some centres unmarked) ?
1000 to 5000 ng·h/mL

Which AUC(0-inf) is listed for O=C1CCC(N2C(=O)c3ccc(N[C@H]4C[C@H](Oc5ccc(S(=O)(=O)c6ccc(OCc7ccnc(N8CC9(COC9)C8)n7)cc6)cc5)C4)cc3C2=O)C(=O)N1 (some centres unmarked) ?
100 to 1000 ng·h/mL

Which AUC(0-inf) value belongs to CC(C)(c1ccc(OCc2cnc(N3CC4(COC4)C3)nc2)cc1)c1ccc(O[C@H]2C[C@@H](Nc3ccc4c(c3)C(=O)N(C3CCC(=O)NC3=O)C4=O)C2)cc1 (some centres unmarked) ?
1000 to 5000 ng·h/mL

Quick one: AUC(0-inf) for CC1(N)CN(c2nccc(COc3ccc(C(C)(C)c4ccc(O[C@H]5C[C@H](Nc6ccc7c(c6)C(=O)N(C6CCC(=O)NC6=O)C7=O)C5)cc4)cc3)n2)C1 (some centres unmarked) ?
1000 to 5000 ng·h/mL
